Target: Histamine H3 receptor (Cavia porcellus)
Assay: Antagonistic activity for Histamine H3 receptor on electrically evoked guinea-pig ileum contraction
Format: functional, tissue-based
pKi: −log10 of the molar value.
Please enter MET where pKi is greater than or equal to 8, and NOT MET where it is lower.

compound=N=C(NCCc1ccccc1)NCCc1cnc[nH]1 class_assignment="NOT MET"
compound=N=C(NCCCc1c[nH]cn1)NCc1ccc(I)cc1 class_assignment=MET
compound=N#CN=C(NCCCc1cnc[nH]1)NCC1CCCCC1 class_assignment="NOT MET"
compound="S=C(NC1CCCCC1)N1CCC(c2cnc[nH]2)CC1 [THIOPERAMIDE]" class_assignment=MET
compound=N=C(NCCCc1c[nH]cn1)NCC1CCCCC1 class_assignment=MET
compound=N=C(NCCCCc1c[nH]cn1)NC1CCCCC1 class_assignment=MET
compound=CCOC(=O)N/C(=N/CC1CCCCC1)NCCCc1c[nH]cn1 class_assignment="NOT MET"

---

Biological target: Histamine H3 receptor (Cavia porcellus)
Experiment: Antagonistic activity for Histamine H3 receptor binding in guinea pig
pKi: −log10 of the molar value.
Experimental endpoint: pKi

compound=CC(C)(C)OC(=O)N/C(=N/CC1CCCCC1)NCCCc1c[nH]cn1 experimental_endpoint=pKi obs_value=8.02
compound=N=C(NCCc1ccccc1)NCCc1cnc[nH]1 experimental_endpoint=pKi obs_value=6.96
compound=N=C(NCCCc1c[nH]cn1)NCc1ccc(I)cc1 experimental_endpoint=pKi obs_value=8.80
compound=N#CN=C(NCCCc1cnc[nH]1)NCC1CCCCC1 experimental_endpoint=pKi obs_value=7.66
compound=CC(C)(C)OC(=O)N/C(=N/C1CCCCC1)NCCCCc1c[nH]cn1 experimental_endpoint=pKi obs_value=8.15
compound=N=C(NCCCc1c[nH]cn1)NCC1CCCCC1 experimental_endpoint=pKi obs_value=9.13
compound=CC(C)(C)OC(=O)N/C(=N\CCCc1c[nH]cn1)NCc1ccc(I)cc1 experimental_endpoint=pKi obs_value=7.92
compound=CCOC(=O)N/C(=N/CC1CCCCC1)NCCCc1c[nH]cn1 experimental_endpoint=pKi obs_value=7.44
compound=N=C(NCCCCc1c[nH]cn1)NC1CCCCC1 experimental_endpoint=pKi obs_value=8.30
compound=O=C(N/C(=N/CC1CCCCC1)NCCCc1c[nH]cn1)OCc1ccccc1 experimental_endpoint=pKi obs_value=7.89

---

Biological target: Histamine H3 receptor (Cavia porcellus, UniProt Q9JI35)
Sequence (Q9JI35 whole entry): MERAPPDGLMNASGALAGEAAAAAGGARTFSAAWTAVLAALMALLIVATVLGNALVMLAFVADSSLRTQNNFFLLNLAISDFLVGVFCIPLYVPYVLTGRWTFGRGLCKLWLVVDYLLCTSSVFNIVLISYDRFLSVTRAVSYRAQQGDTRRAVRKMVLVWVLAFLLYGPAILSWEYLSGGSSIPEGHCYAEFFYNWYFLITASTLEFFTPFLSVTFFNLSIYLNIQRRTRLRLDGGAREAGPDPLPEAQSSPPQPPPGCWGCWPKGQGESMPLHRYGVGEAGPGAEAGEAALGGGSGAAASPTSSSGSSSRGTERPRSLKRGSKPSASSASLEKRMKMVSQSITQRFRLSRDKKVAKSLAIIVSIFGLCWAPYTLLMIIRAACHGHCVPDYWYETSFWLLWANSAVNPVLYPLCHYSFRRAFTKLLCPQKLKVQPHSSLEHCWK
Assay: Antagonistic activity for Histamine H3 receptor on electrically evoked guinea-pig ileum contraction
Format: functional, tissue-based
pKi: −log10 of the molar value.
Experimental endpoint: pKi

compound=CC(C)(C)OC(=O)N/C(=N/C1CCCCC1)NCCCCc1c[nH]cn1 obs_value=8.20
compound=CC(C)(C)OC(=O)N/C(=N\CCCc1c[nH]cn1)NCc1ccc(I)cc1 obs_value=7.90
compound=CC(C)(C)OC(=O)N/C(=N/CC1CCCCC1)NCCCc1c[nH]cn1 obs_value=8.00
compound=O=C(N/C(=N/CC1CCCCC1)NCCCc1c[nH]cn1)OCc1ccccc1 obs_value=7.90
